Experiment: Metabolic stability in rat liver microsomes assessed as compound remaining at 1 uM after 15 mins
Type: ADME, Microsome
Conditions: read-out: Stability
QUANTITY_NAME: remaining at 0.25 h, 1 µM
The answer consists of two parts: a number and, after it, its unit.

Identify the reported remaining at 0.25 h, 1 µM for the following entry. CCn1cc(CN2CCN(c3cccc4[nH]c(-c5ccc(C(C)(C)C)cc5)nc34)CC2)c(=O)[nH]c1=O 12%

----------
Assay: AUC (0 to alpha) in orchidectomized Sprague-Dawley rat at 30 mg/kg, po after 1 day
Format: ADME, organism-based
Design: dose 30 mg/kg, route oral
Settings: male, plasma
QUANTITY_NAME: AUC at 24 h (ng·h/mL)
Report only the number, with the unit ng·h/mL understood.

Identify the reported AUC at 24 h for the following entry. CCn1cnc(CN2CCN(c3cccc4[nH]c(-c5ccc(C(C)(C)C)cc5)nc34)CC2)c1C 3440

----------
Give pIC50 for every item shown.
Target: Gonadotropin-releasing hormone receptor (Homo sapiens, UniProt P30968)
Sequence (P30968 whole entry): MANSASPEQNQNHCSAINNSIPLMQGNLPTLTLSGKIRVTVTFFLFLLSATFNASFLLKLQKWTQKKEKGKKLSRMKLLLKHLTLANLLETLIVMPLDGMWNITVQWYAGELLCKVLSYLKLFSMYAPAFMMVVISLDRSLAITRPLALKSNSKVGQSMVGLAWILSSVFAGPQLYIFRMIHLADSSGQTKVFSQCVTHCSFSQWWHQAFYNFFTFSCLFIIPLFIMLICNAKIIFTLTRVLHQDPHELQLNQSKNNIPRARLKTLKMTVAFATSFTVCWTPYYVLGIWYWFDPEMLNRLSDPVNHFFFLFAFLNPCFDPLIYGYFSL
Experiment: Displacement of [125I]-(D-Trp6)-GnRH from human GnRH receptor
Please keep in mind that pIC50 is minus log10 of the molar concentration; only the number is needed.

Identify the reported pIC50 for the following entry. Cc1cc(CN2CCN(c3cccc4[nH]c(-c5ccc(C(C)(C)C)cc5)nc34)CC2)n(C)n1 7.64

Identify the reported pIC50 for the following entry. CCc1nc(C)c(CN2CCN(c3cccc4[nH]c(-c5ccc(C(C)(C)C)cc5)nc34)CC2)s1 7.70

Identify the reported pIC50 for the following entry. CCc1nc(CN2CCN(c3cccc4[nH]c(-c5ccc(C(C)(C)C)cc5)nc34)CC2)c(C)o1 7.57

Identify the reported pIC50 for the following entry. Cc1nn(C)c(C)c1CN1CCN(c2cccc3[nH]c(-c4ccc(C(C)(C)C)cc4)nc23)CC1 7.42

Identify the reported pIC50 for the following entry. CCCn1cnc(CN2CCN(c3cccc4[nH]c(-c5ccc(C(C)(C)C)cc5)nc34)CC2)c1C 7.92

Identify the reported pIC50 for the following entry. Cc1nc(CN2CCN(c3cccc4[nH]c(-c5ccc(C(C)(C)C)cc5)nc34)CC2)cn1C 8.00

Identify the reported pIC50 for the following entry. Cc1n[nH]c(C)c1CN1CCN(c2cccc3[nH]c(-c4ccc(C(C)(C)C)cc4)nc23)CC1 7.17

Identify the reported pIC50 for the following entry. Cc1ncoc1CN1CCN(c2cccc3[nH]c(-c4ccc(C(C)(C)C)cc4)nc23)CC1 7.05

Identify the reported pIC50 for the following entry. CCc1nc(CN2CCN(c3cccc4[nH]c(-c5ccc(C(C)(C)C)cc5)nc34)CC2)cn1CC 7.96

Identify the reported pIC50 for the following entry. CCc1cc(CN2CCN(c3cccc4[nH]c(-c5ccc(C(C)(C)C)cc5)nc34)CC2)n(C)n1 7.66

----------
Molecular target: UniProtKB P30968
Assay: Displacement of [125I]-(D-Trp6)-GnRH from human GnRH receptor
QUANTITY_NAME: pIC50
Please keep in mind that pIC50 is minus log10 of the molar concentration; only the number is needed.

Identify the reported pIC50 for the following entry. CC(C)(C)c1ccc(-c2nc3c(N4CCN(Cc5cnc[nH]5)CC4)cccc3[nH]2)cc1 7.68

Identify the reported pIC50 for the following entry. CCc1nc(CN2CCN(c3cccc4[nH]c(-c5ccc(C(C)(C)C)cc5)nc34)CC2)c(C)n1CC 8.10

Identify the reported pIC50 for the following entry. CCCCn1cnc(CN2CCN(c3cccc4[nH]c(-c5ccc(C(C)(C)C)cc5)nc34)CC2)c1C 7.34
